The measurements presented in this section are drawn from ChEMBL document CHEMBL1123569.

target-under-test: Renin (Homo sapiens)
Sequence (P00797 whole entry): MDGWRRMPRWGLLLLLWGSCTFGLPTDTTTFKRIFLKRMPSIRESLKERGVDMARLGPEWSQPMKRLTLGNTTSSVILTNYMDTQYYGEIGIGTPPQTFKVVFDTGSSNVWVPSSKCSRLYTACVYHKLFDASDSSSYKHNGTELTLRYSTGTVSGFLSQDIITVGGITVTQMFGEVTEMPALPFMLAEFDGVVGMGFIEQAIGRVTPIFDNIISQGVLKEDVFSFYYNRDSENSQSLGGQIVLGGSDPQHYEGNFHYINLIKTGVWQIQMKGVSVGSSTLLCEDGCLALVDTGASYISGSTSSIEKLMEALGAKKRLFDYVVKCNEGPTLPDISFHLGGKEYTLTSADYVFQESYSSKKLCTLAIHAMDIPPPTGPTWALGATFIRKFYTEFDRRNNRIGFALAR
assay-comment: Inhibition of human plasma renin
*1 amine or outer side, *2 acyl side, *3 side chain or, on linkers, in order; H or OH if unused. Where a SMILES comes first, the peptide text is derived from it. [ ]: non-standard residue; d: D form. The star is where a group is joined. ξ: configuration not given here. Sta = CC(C)C[C@H](N)[C@@H](O)CC(=O)O; X1 = O=C(C(N[*:1])c1cccs1)[*:2]; ξGly(cPent) = NC(C(=O)O)C1CCCC1; ξChg = NC(C(=O)O)C1CCCCC1; Nle = CCCC[C@H](N)C(=O)O; Boc = CC(C)(C)OC(=O)*
observable: pIC50
When answering, recall that pIC50 equals minus log10 of the concentration in mol/L, and write that number alone.

Previously resolved entries follow.
compound: COC(=O)C[C@H](O)[C@H](CC(C)C)NC(=O)[C@H](C)NC(=O)C[C@H](O)[C@H](CC(C)C)NC(=O)C(NC(=O)[C@H](Cc1ccccc1)NC(=O)OC(C)(C)C)C1CCCCC1 (some centres not stated) (Boc-F[ξChg][Sta]A[Sta]-OMe)
pIC50: 6.82
//
compound: COC(=O)C[C@H](O)[C@H](CC(C)C)NC(=O)[C@H](C)NC(=O)C[C@H](O)[C@H](CC(C)C)NC(=O)[C@H](CC(N)=O)NC(=O)[C@H](Cc1ccccc1)NC(=O)OC(C)(C)C (Boc-FN[Sta]A[Sta]-OMe)
pIC50: 5.92
//
compound: COC(=O)C[C@H](O)[C@H](CC(C)C)NC(=O)[C@H](C)NC(=O)C[C@H](O)[C@H](CC(C)C)NC(=O)C(NC(=O)[C@H](Cc1ccccc1)NC(=O)OC(C)(C)C)c1cccs1 (some centres not stated) (Boc-F[X1][Sta]A[Sta]-OMe)
pIC50: 6.60
//
compound: CCCC[C@H](NC(=O)[C@H](Cc1ccccc1)NC(=O)OC(C)(C)C)C(=O)N[C@@H](CC(C)C)[C@@H](O)CC(=O)N[C@@H](C)C(=O)N[C@@H](CC(C)C)[C@@H](O)CC(=O)O (Boc-F[Nle][Sta]A[Sta]-OH)
pIC50: 7.52
//
compound: CCOC[C@H](NC(=O)[C@H](Cc1ccccc1)NC(=O)OC(C)(C)C)C(=O)N[C@@H](CC(C)C)[C@@H](O)CC(=O)N[C@@H](C)C(=O)N[C@@H](CC(C)C)[C@@H](O)CC(=O)OC (Boc-FS(Et)[Sta]A[Sta]-OMe)
pIC50: 6.95

Supply recorded pIC50 for COC(=O)C[C@H](O)[C@H](CC(C)C)NC(=O)[C@H](C)NC(=O)C[C@H](O)[C@H](CC(C)C)NC(=O)C(NC(=O)[C@H](Cc1ccccc1)NC(=O)OC(C)(C)C)C1CCCC1 (some centres not stated) (Boc-F[ξGly(cPent)][Sta]A[Sta]-OMe) here.
7.43

Please give measured pIC50 of the following entry: COC(=O)C[C@H](O)[C@H](CC(C)C)NC(=O)[C@H](C)NC(=O)C[C@H](O)[C@H](CC(C)C)NC(=O)[C@H](Cc1ccccc1)NC(=O)[C@H](Cc1ccccc1)NC(C)=O (Ac-FF[Sta]A[Sta]-OMe)
5.85
